Experiment: NCI Yeast Anticancer Drug Screen. Data for the wt1 strain (AID 149)
Settings: S. cerevisiae wt1 strain (SPY 50644) growth inhibition; at 3.7 µM
The panel holds about 79,000 compounds, 15% with a hit somewhere; the sample as a whole holds those more often. Activity calls are given as the source filed them. Rule as the data show it: active = growth inhibition above about 70%; inactive = the rest.
Bench note: report the call from True (active), False (inactive)

OC(c1ccc(Br)cc1)(c1cccs1)C1CC1 (centres undefined)	False
O=C(O)/C=C\C(=O)NNc1ccc(Br)cc1	True

-- ask # fetch the recorded call for Cc1cccc(N2CCN(C(=O)/C(=C/c3ccccc3)NC(=O)c3ccccc3)CC2)c1 here
-- reply False

-- ask Write down the call the test reported for this molecule. Item: CCCCCC(=O)C(C)(c1nc2n(c1O)/C(=N/C(=O)Nc1ccc(Cl)cc1)N=N2)c1nc2n(c1O)/C(=N/C(=O)Nc1ccc(Cl)cc1)N=N2
-- reply False

-- ask Write down the call the test reported for this molecule. Item: COc1cc(C(C)(C)C)cc(OC)c1C(O)(c1c(OC)cc(C(C)(C)C)cc1OC)c1c(OC)cc(C(C)(C)C)cc1OC
-- reply False

-- ask Each molecule tested received a call. Report the one for Nc1cccc2cc(Cl)cnc12 .
-- reply False

-- ask Tell me the assay call for CC(C)(C(=O)NN)c1ccccc1 please.
-- reply False

-- ask Test call for this molecule, please: CN(C)N=Nc1ccc(NC=O)cc1
-- reply False

-- ask Kindly provide the recorded test outcome for the following molecule: CCOc1nc(OCC)nc(-c2cccn2-c2ccccc2)n1
-- reply False

-- ask Hi, sorry to bother you, what did the test record for CCC1SC(=S)N(c2ccc(Cl)cc2)C1=O (centres undefined) ?
-- reply False

-- ask What call does the record list for CC[N+]1(C)CCC(O)(/C=C/c2ccc(Cl)c(Cl)c2)C(C(=O)/C=C/c2ccc(Cl)c(Cl)c2)C1 (centres undefined) ?
-- reply False

-- ask Short answer needed: outcome of this test for Cc1ccccc1C1=C(CC(=O)O)c2ccccc2CC1C (centres undefined) ?
-- reply False

-- ask Dear all, I need the recorded test outcome for COc1ccc(/C(=N/O)c2ccccc2C2=Nc3ccccc3C(NCc3ccccc3)O2)cc1C (centres undefined) , thank you.
-- reply False

-- ask For this molecule, state the assay outcome: COc1ccc(/C=C2\S/C(=N/Nc3nc(-c4ccccc4)cs3)NC2=O)cc1OC
-- reply True

-- ask Identify the outcome logged in this assay for the molecule shown: Oc1ccc(Cc2nccc3cc(O)c(O)cc23)cc1O
-- reply False

-- ask What classification did Cc1ccc(P(c2ccc(C)cc2)c2ccc(C)cc2)cc1 end up with in this test?
-- reply False

-- ask What is the recorded call for this molecule in the test? O=C(O)CN(CCNC(=O)OCC1c2ccccc2-c2ccccc21)CCNC(=O)OCC1c2ccccc2-c2ccccc21
-- reply False

-- ask # outcome recorded in this test, key = c1ccc2cc(OCC3CO3)c(OCC3CO3)cc2c1 (centres undefined)
-- reply False

-- ask Dear colleague, could you share the recorded outcome for CCCCCCCCCCCCCCCCOCC(Cl)COP(=O)(O)OP(=O)(O)OCC1OC(n2cnc3c(N)ncnc32)C(O)C1O (centres undefined) when you have a moment?
-- reply False

-- ask Each molecule tested received a call. Report the one for CN(C)N1C(=O)SCC(c2ccccc2)(c2ccccc2)C1=O .
-- reply False

-- ask // return assay outcome for O=C(c1c(F)c(F)c(F)c(F)c1F)c1c(F)c(F)c(F)c(F)c1F
-- reply False

-- ask Write down the call the test reported for this molecule. Item: CCOC(=O)C1=C(C)NC(C)=C(C(=O)OCC)C1c1cccc([N+](=O)[O-])c1
-- reply False

-- ask Which outcome did this test record for the molecule CC1C=CN(N(C)C)C2=C1C(=O)c1cnccc1C2=O (centres undefined) ?
-- reply False
